- system: Aryl hydrocarbon receptor (Homo sapiens)
- assay-protocol: qHTS assay to identify small molecule that activate the aryl hydrocarbon receptor (AhR) signaling pathway (AID 743085); note: nearly all actives have a fitted effect of over 15% in size;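 for activation: HG2L7.5c1 human HepG2 liver cells with stably integrated DRE-driven firefly reporter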
- experimental-conditions: HepG2 AhR-luc (HG2L7.5c1), luciferase, 24 h; series mostly up to 70.3 µM
Inconclusive results are not listed. Active and inactive are the calls of the source. Calls come from the whole dose curve; as a rule, active = well fitted activation curve with a large enough effect in the repeat runs; inconclusive = weak or mixed curves; inactive = no such curve, though single readings can be large or run the other way.
Labels: active, inactive

> print(dat)
                                    compound  class.assignment
 1  CCCNC(C)C(=O)Nc1c(C)csc1C(=O)OC (configuration not stated)          inactive
 2              CCCCCCCCc1ccc(S(=O)(=O)O)cc1          inactive
 3                  O=C1CCCCCCCCCCC(=O)OCCO1          inactive
 4                            CO[Si](C)(C)OC          inactive
 5  Cc1nnc(SCC2=C(C(=O)O)N3C(=O)[C@@H](NC(=O)Cn4cnnn4)[C@H]3SC2)s1          inactive
 6  O=[N+]([O-])c1nccn1CO[C@@H](CO)[C@H](O)CO          inactive
 7  CN(CC1(C)CCCO1)S(=O)(=O)c1ccc(Cl)c(S(N)(=O)=O)c1 (configuration not stated)          inactive
 8                 Cc1ccc([N+](=O)[O-])cc1Cl          inactive
 9                       CC(C)(C)c1cccc(O)c1          inactive
10                       FC(F)(F)C(Cl)(Cl)Cl          inactive
11  CCC1(C)NC(=O)NC1=O (configuration not stated)          inactive
12          CC(C)(CO)[C@@H](O)C(=O)NCCC(=O)O          inactive
13  CCOC(=O)[C@H](CCc1ccccc1)N[C@@H](C)C(=O)N1Cc2cc(OC)c(OC)cc2C[C@H]1C(=O)O            active
14                                Oc1ccccc1F          inactive
15              CC(C)CCCCCCc1ccc(OCCOCCO)cc1          inactive
16       CN(C)CC[C@@H](c1ccc(Cl)cc1)c1ccccn1          inactive
17  C[C@@H]1CN(c2c(F)c(F)c3c(=O)c(C(=O)O)cn(C4CC4)c3c2F)C[C@H](C)N1          inactive
18                                  C1CSCCS1          inactive
19                         Cc1ccc(C(C)C)cc1O          inactive
20                             NC/C=C/C(=O)O          inactive
21                                 CCCCNCCCC          inactive
22  O=C1N(c2ccccc2)c2ccccc2C1(Cc1ccncc1)Cc1ccncc1          inactive
23                 CC1(C)C(=O)N(Cl)C(=O)N1Br          inactive
24                                   CCCCCCC          inactive
25  COC(=O)N[C@H](C(=O)N[C@@H](Cc1ccccc1)[C@@H](O)CN(Cc1ccc(-c2ccccn2)cc1)NC(=O)[C@@H](NC(=O)OC)C(C)(C)C)C(C)(C)C          inactive
26            C=CCc1cc(OC)c(O)c(C(=O)NCCO)c1          inactive
27                         OCCN(CCO)c1ccccc1          inactive
